Experimental target: T1, Processed stabilized hMPV PreF trimer (115BV) (human metapneumovirus, strain B2)
T1 construct: also called Processed hMPV PreF trimer; processed PreF
Measurement protocol: BLI, ratio to unprocessed PreF trimer
Please respond with reported processed/unprocessed PreF trimer binding ratio for every item in the list.
One number for each entry.

Okay, here is my list. What is processed/unprocessed PreF trimer binding ratio for each of these?
1. M4C03 (antibody, V domains shown, IgG) VH: EVQLVESGGTLVQPGGSLRLSCAASGFRFNAFSMNWVRQAPGKGLEWVSYIDSRSNIIYYADSVKGRFTISRDNAKTSLYLRMSSLRDEDTAVYYCAKALCVVNYDFWSGLLGCAMDVWGQGTTVTVSS VL: QSVLTQPPSVSGAPGQRVTISCTGTTSNIGAGFDVHWYQQVPGTAPKLLIYANTDRPSGVPDRFSASKSGTSASLAITGLQVEDEAHYYCQTYDTTLSGSTVFGGGTKLTVL
2. M3A07 (antibody, V domains shown, IgG) VH: QVQLVQSGAEVQKPGASVKVSCKASGYTFTRHAIHWVRQAPGQRLEWIGWVHGGNENTKYSQKLQGRVTITRDTSASTAYMELNSLRYEDTAVYYCATAMPGAFNMWGQGTVVTVSS VL: DIQMTQSPSTLSASVGDRVTITCRASQSISSWVAWYQQKPGKAPKLLIYKAFSLETGVPSRFSGSGSGTEFTLTISSLQPDDCATYYCQQYGSFSEFTFGQGTKLEIK

Reply |
0.12
0.17
